Assay: qHTS assay to test for compound auto fluorescence at 535 nm (green) in HEK293 cell free culture (AID 720682)
Conditions: cell-free medium, green autofluorescence 485/535 nm; series mostly up to 46 µM
Calls of active or inactive are those of the source. The call rests on the fitted dose curve; in most records, active means well fitted curve in the direction sought with a large enough effect in the repeat runs; inconclusive means weak or mixed curves; inactive means flat fitted curve, though single readings scatter.
Experimental Readout: activity change

Documented activity change of CCOC(=O)[C@H](CCc1ccccc1)N[C@@H](C)C(=O)N1[C@H](C(=O)O)C[C@@H]2CCC[C@@H]21 : inactive

Documented activity change of Cc1ccc(C#N)cc1 : inactive

Documented activity change of COC(=O)CCSCCC(=O)OC : inactive

Documented activity change of N=C(N)c1ccc(OCCCOc2ccc(C(=N)N)cc2)cc1 : inactive

Documented activity change of N[C@H](C(=O)O)c1ccc(O)cc1 : inactive

---
Documented activity change of CC/C=C\CC/C=C/C(OCC)OCC : inactive

Documented activity change of N[C@H]1CN(c2c(F)cc3c(=O)c(C(=O)O)cn(C4C[C@H]4F)c3c2Cl)CC12CC2 (stereo partly drawn) : inactive

Documented activity change of CC(=O)N(CC(O)CO)c1c(I)c(C(=O)NCCO)c(I)c(C(=O)NCC(O)CO)c1I (stereo not drawn) : inactive

Documented activity change of C/C=C(\C)C#N : inactive
